System: adrenaline
protocol text: Protection against a lethal dose of adrenaline
Format: in vivo, swiss mice
condition set: Mus musculus; 100 mg/kg oral, 1 h before 2 mg/kg intravenous adrenaline; mice; read-out: TEST D ANTI-ADRENALINE (animals surviving 15 min later)
value kind: responders at 100 mg/kg (%)
Please reply with the bare figure in % and do not write the unit itself.

Solved entries (count: 3):
OC(CCCN1CCC(OC(c2ccccc2)c2ccccc2)CC1)c1ccc(C2CCCCC2)cc1 (stereo not shown) [Compound 6]	20
CC(C)(C)c1ccc(C(O)CCCN2CCC(C(O)(c3ccccc3)c3ccccc3)CC2)cc1 (stereo not shown) [TERFENADINE, reference compound]	20
CC(C)(C)c1ccc(C(O)CCCN2CCC(OC(c3ccccc3)c3ccccc3)CC2)cc1 (stereo not shown) [Compound 8]	60

Now let's try a different one.
[Q] Form field - read-out: responders at 100 mg/kg; system: adrenaline; submitted item: CC(C)c1ccc(C(=O)CCCN2CCC(OC(c3ccccc3)c3ccccc3)CC2)cc1 [Compound 2]
[A] 50

====

Test system: adrenaline
protocol text: Protection against a lethal dose of adrenaline
Type: in vivo, swiss mice
condition set: Mus musculus; 100 mg/kg oral, 1 h before 2 mg/kg intravenous adrenaline; mice; read-out: TEST D ANTI-ADRENALINE (animals surviving 15 min later)
value kind: responders at 100 mg/kg (%)
All answers are understood in %, so give the number only.

Use the examples below as a reference point.
O=C(CCCN1CCC(OC(c2ccccc2)c2ccccc2)CC1)c1ccc(CC2CC2)cc1 [Compound 4]	40
CC(C)(C)c1ccc(C(=O)CCCN2CCC(OC(c3ccc(F)cc3)c3ccc(F)cc3)CC2)cc1 [Compound 7]	40
CCc1ccc(C(=O)CCCN2CCC(OC(c3ccccc3)c3ccccc3)CC2)cc1 [Compound 3]	20

The record that follows has no responders at 100 mg/kg shown yet.
[Q] Data request, read-out responders at 100 mg/kg, for CC(C)(C)c1ccc(C(=O)CCCN2CCC(OC(c3ccccc3)c3ccccc3)CC2)cc1 [Compound 1]
[A] 50

====

Listed next: entries and their corresponding TEST A RAT HINDQUARTERS % Inhibition.
System: rat hindquarters
protocol text: Rat hindquarter preparation, responses to high-K+ Krebs' solution
condition set: maximum percentage inhibition; 10^-7 M perfused for 20 minutes; 80 mM K+
Dear colleague, please return just the value in %, with no unit written.

Consider the worked cases shown below.
CC(C)(C)c1ccc(C(O)CCCN2CCC(C(O)(c3ccccc3)c3ccccc3)CC2)cc1 (centres unmarked) [TERFENADINE, reference compound]	44
CC(C)c1ccc(C(=O)CCCN2CCC(OC(c3ccccc3)c3ccccc3)CC2)cc1 [Compound 2]	59
CCc1ccc(C(=O)CCCN2CCC(OC(c3ccccc3)c3ccccc3)CC2)cc1 [Compound 3]	65
CC(C)(C)c1ccc(C(=O)CCCN2CCC(OC(c3ccccc3)c3cccs3)CC2)cc1 (centres unmarked) [Compound 5]	65

Field: next molecule
[Q] Report TEST A RAT HINDQUARTERS % Inhibition for CC(C)(C)c1ccc(C(O)CCCN2CCC(OC(c3ccccc3)c3ccccc3)CC2)cc1 (centres unmarked) [Compound 8] please.
[A] 69

====

System: rat hindquarters
protocol text: Rat hindquarter preparation, responses to high-K+ Krebs' solution
condition set: maximum percentage inhibition; 10^-7 M perfused for 20 minutes; 80 mM K+
value kind: TEST A RAT HINDQUARTERS % Inhibition (%)
Only the number, expressed in %, is required.

Consider the following illustrative entries.
CC(C)(C)c1ccc(C(=O)CCCN2CCC(OC(c3ccc(F)cc3)c3ccc(F)cc3)CC2)cc1	62
OC(CCCN1CCC(OC(c2ccccc2)c2ccccc2)CC1)c1ccc(C2CCCCC2)cc1 (stereo not drawn)	57

[Q] Name the recorded TEST A RAT HINDQUARTERS % Inhibition for `O=C(CCCN1CCC(OC(c2ccccc2)c2ccccc2)CC1)c1ccc(CC2CC2)cc1` .
[A] 75
